Tested on: OVCAR-3
Assay: NCI tumour cell line growth inhibition, 48 h
The source made the active and inactive calls. Cut-off read from the data, not from the text of the source: active = GI50 up to about 1.1 µM and inactive = higher.
Examples of molecules with documented GI50 follow.

Please review the following examples before continuing.
> print(dat)
                                   molecule   experimental.value
1  COC(=O)C(=O)C(C(=O)C(=O)Nc1nnc(S)[nH]1)c1nc2ccc([N+](=O)[O-])cc2nc1O (stereo unspecified)  > 100 µM (inactive)
2  COC(=O)C1C(OC(=O)C(Cl)(c2ccccc2)c2ccccc2)CC2CCC1N2C (stereo unspecified)  > 100 µM (inactive)
3  O=[N+]([O-])C1(C2([N+](=O)[O-])CCCC2)CCCC1  > 100 µM (inactive)
4                  NC(=O)c1nnc2ccc(F)cc2c1N  > 100 µM (inactive)
5                COc1cccc2c1CCc1ccccc1CC2=O  > 100 µM (inactive)

Just so you know, measured GI50 for O=C(N/N=C\c1c(O)ccc2ccccc12)c1ccncc1 came out at 1.22 µM (inactive)

Just so you know, measured GI50 for Cc1cc(C)nc(NS(=O)(=O)c2ccc(Nc3c4ccc(Cl)cc4nc4c(C(=O)NCCN(C)C)cccc34)cc2)n1 came out at > 100 µM (inactive)

Just so you know, measured GI50 for Cc1cc(/N=N/c2c(O)ccc3ccccc23)ccc1/N=N/c1cccc([N+](C)(C)C)c1 came out at 5.21 µM (inactive)

Just so you know, measured GI50 for CC(C)(C)OC(=O)N1C(c2cccnc2)=CC[C@H]2C3CC=C(c4cccnc4)[C@@]3(C)CC[C@@H]21 (stereo partly specified) came out at 3.44 µM (inactive)

Just so you know, measured GI50 for COc1ccc(-c2nc(SCC(=O)NNC(=S)Nc3ccccc3)[nH]c2-c2ccc(OC)cc2)cc1 came out at 14.3 µM (inactive)

Just so you know, measured GI50 for CCOP(=O)(OCC)/C(C#N)=C/c1c(C)[nH]c2ccccc12 came out at > 100 µM (inactive)

Just so you know, measured GI50 for C[Si](C)(C)/C=C/CCC(C=O)(CCCl)c1ccccc1 (stereo unspecified) came out at 16.7 µM (inactive)

Just so you know, measured GI50 for COc1ccccc1NC(=O)C1=C(C)NC(C)=C(C(=O)Nc2ccccc2OC)C1c1ccc(C)cc1 came out at > 100 µM (inactive)

Just so you know, measured GI50 for CNCc1cc(OC)ccc1-c1ccc(OC)c(OC)c1OC came out at > 70 µM (inactive)

Just so you know, measured GI50 for CCc1cccc(C(C)C)c1NC(=O)C(=O)C(Cc1nc2ccccc2nc1O)C(=O)OC (stereo unspecified) came out at > 100 µM (inactive)

Just so you know, measured GI50 for CCOC(=O)CC[C@H](N)C(=O)N[C@H](Cc1ccc(N(CCCl)CCCl)cc1)C(=O)OCC came out at 3.59 µM (inactive)

Just so you know, measured GI50 for CCN(CC)CCCC(C)Nc1ccnc2cc3ccccc3cc12 (stereo unspecified) came out at 6.05 µM (inactive)

Just so you know, measured GI50 for Cn1c(N/N=C/c2ccc(Cl)cc2)nc(-c2ccc(Cl)cc2)c(C#N)c1=O came out at 16.4 µM (inactive)

====

System: SNB-19
Experiment: NCI tumour cell line growth inhibition, 48 h
Activity calls are given as the source filed them. Cut-off read from the data, not from the text of the source: active = GI50 up to about 1.1 µM and inactive = higher.
Answer with one of the outcomes given here: class 1 for active, class 0 for inactive

> print(dat)
                                    molecule  group.label
 1  C[Si](C)(C)/N=C1\N2C(=NC1(C(F)(F)F)C(F)(F)F)Sc1ccccc12      class 0
 2  COc1ccc(-c2nc(SCC(=O)NNC(=S)Nc3ccccc3)[nH]c2-c2ccc(OC)cc2)cc1      class 0
 3  COc1ccc(N2C(=O)CC(=O)N(C(=O)CCCCCCCCC(=O)N3C(=O)CC(=O)N(c4ccc(OC)cc4)C3=S)C2=S)cc1      class 0
 4  O=C(OCc1ccccc1)c1nc2ccccc2n1S(=O)(=O)c1ccccc1      class 0
 5  O=C1[C@@H]2[C@@H](c3ccccc3)[C@]2(Cl)C(=O)[C@H]2[C@H](c3ccccc3)[C@@]12Cl      class 0
 6  CCCNCC(=O)O[C@]1(CC)C(=O)OCc2c1cc1n(c2=O)Cc2cc3ccccc3nc2-1      class 1
 7  COc1cccc(C=C2N=C(c3ccccc3)N(n3c(-c4ccccc4)nc4ccccc4c3=O)C2=O)c1      class 0
 8  CCOC(=O)CCC(NC(=O)c1ccc(OCc2nc3cc(C(F)(F)F)ccc3nc2-c2ccccc2)cc1)C(=O)OCC (centres undefined)      class 0
 9  CN(C)c1nc(N(C)C)n2nc(-c3ccccc3[N+](=O)[O-])nc2n1      class 0
10   O=C(C(=O)N1CCc2ccccc21)c1c[nH]c2ccccc12      class 0

Asked: How did this test come out for CSC1=C(C(=O)Nc2ccccc2)C(N)=NC1=O ?
Given back: class 0

Asked: How did this test come out for C=CC[C@H](C[C@H](C[C@H](C[C@H](C[C@H](C[C@H](C[C@H](C[C@H](C[C@H](C[C@H](CCCCC)OC)OC)OC)OC)OC)OC)OC)OC)OC)OC ?
Given back: class 0

Asked: How did this test come out for O=S1(=O)CCN(Cc2ccccc2)/C1=N\S(=O)(=O)c1ccc(Cl)cc1 ?
Given back: class 0

Asked: How did this test come out for CCCC(=O)Nc1cc(/C=C/C(=O)N2CC(CCl)c3c2cc([N+](=O)[O-])c2ccccc32)n(C)c1 (centres undefined) ?
Given back: class 0

Asked: How did this test come out for CCOP(=O)(OCC)/C(C#N)=C/c1c(C)[nH]c2ccccc12 ?
Given back: class 0

Asked: How did this test come out for CC[N+]1(C)CCC(O)(c2ccc(C)cc2)C(C(=O)c2ccc(C)cc2)C1 (centres undefined) ?
Given back: class 0

Asked: How did this test come out for COc1cccc2c1OC1(C=C2)Oc2ccccc2C(=O)N1C (centres undefined) ?
Given back: class 0

Asked: How did this test come out for C/C(CN1C(=O)c2ccccc2C1=O)=N\NS(=O)(=O)c1ccc2ccccc2c1 ?
Given back: class 0

Asked: How did this test come out for CC1=C(C(=O)OCc2ccncc2)C(C2=C(C)SCCS2)C(C(=O)OCc2ccncc2)=C(C)N1 ?
Given back: class 0

====

Tested on: SK-MEL-28
Assay: NCI tumour cell line growth inhibition, 48 h
Active and inactive are the calls of the source. No stated cut-off is given here; in the data, active = GI50 up to about 1.1 µM and inactive = higher.
Answer with one of the outcomes given here: active, inactive

Example results:
> print(dat)
                                   compound  group.label
1    CCOc1ccc(/C=C/c2cc(OC)c(OC)c(OC)c2)cc1       active
2  C=C1CC(OC)(C(OC)C(=O)N(C)[C@H]2OCO[C@H]3C2O[C@H](C[C@@H](COC)OC)C(C)(C)C3OC)O[C@H](C)[C@@H]1C (some centres undefined)     inactive
3  O=C(Nc1nc(C23CC4CC(CC(C4)C2)C3)cs1)c1cc2c(ccc3ccccc32)oc1=O     inactive
4  COC(=O)C1C(OC(=O)C(Cl)(c2ccccc2)c2ccccc2)CC2CCC1N2C (centres undefined)     inactive
5  CC1=NNC(=O)C1C1C(=O)NN=C(c2c[nH]c3ccccc23)C1Br (centres undefined)     inactive
6  COc1ccc2c(=O)cc(-c3ccc(OC)c(OC)c3OC)oc2c1     inactive

Asked: How did this test come out for N=c1oc2ccc([N+](=O)[O-])cc2cc1C(=O)Nc1ccccn1 ?
Given back: inactive

Asked: How did this test come out for N#CCCN(CCC#N)c1ccc(/C=C2\N=C(CN3C(=O)c4ccccc4C3=O)OC2=O)cc1 ?
Given back: inactive

Asked: How did this test come out for COc1cc(Cn2c3c(c4c(CN(C)C)c(O)ccc42)C(=O)c2ccccc2C3=O)cc(OC)c1 ?
Given back: inactive

====

Test system: UACC-257
Test: NCI tumour cell line growth inhibition, 48 h
Activity calls are given as the source filed them. No stated cut-off is given here; in the data, active = GI50 up to about 1.1 µM and inactive = higher.
Examples of molecules with documented GI50 follow.

Please review the following examples before continuing.
MOLECULE	MEASURED ON	GI50
O=C(NCCCCCCNC(=O)n1cc(F)c(=O)[nH]c1=O)NCCCOCCOCCOCCOCCOCCOCCOCCOCCOCCOCCOCCOCCOCCOCCOCCOCCOCCOCCOCCOCCOCCCNC(=O)C(O)C(O)C(OC1OC(CO)C(O)C(O)C1O)C(O)CO (stereo unspecified)	UACC-257	59.4 µM (inactive)
CC(=O)O/N=C(/C)c1ccccc1O	UACC-257	> 100 µM (inactive)
Cc1ccc(-c2c(C#N)c(S)n(NS(=O)(=O)c3ccccc3)c(=O)c2C#N)cc1	UACC-257	61 µM (inactive)
COc1ccc(CNc2nc3cc(C(F)(F)F)ccc3nc2C(=O)O)cc1OC	UACC-257	34.2 µM (inactive)
CCOC(=O)CCCn1cc(C(=O)OC)nn1	UACC-257	> 100 µM (inactive)

# CSC1=C(C(=O)Nc2ccccc2)C(N)=NC1=O with UACC-257: GI50 is > 100 µM (inactive)
